Molecular target: T1, soluble form of GPC3 core protein (human, UniProt P51654 25-563)
T1 construct: not shown: His tag added to the C-terminus
T1 sequence (P51654 25-563 S495A/S509A, form in doubt): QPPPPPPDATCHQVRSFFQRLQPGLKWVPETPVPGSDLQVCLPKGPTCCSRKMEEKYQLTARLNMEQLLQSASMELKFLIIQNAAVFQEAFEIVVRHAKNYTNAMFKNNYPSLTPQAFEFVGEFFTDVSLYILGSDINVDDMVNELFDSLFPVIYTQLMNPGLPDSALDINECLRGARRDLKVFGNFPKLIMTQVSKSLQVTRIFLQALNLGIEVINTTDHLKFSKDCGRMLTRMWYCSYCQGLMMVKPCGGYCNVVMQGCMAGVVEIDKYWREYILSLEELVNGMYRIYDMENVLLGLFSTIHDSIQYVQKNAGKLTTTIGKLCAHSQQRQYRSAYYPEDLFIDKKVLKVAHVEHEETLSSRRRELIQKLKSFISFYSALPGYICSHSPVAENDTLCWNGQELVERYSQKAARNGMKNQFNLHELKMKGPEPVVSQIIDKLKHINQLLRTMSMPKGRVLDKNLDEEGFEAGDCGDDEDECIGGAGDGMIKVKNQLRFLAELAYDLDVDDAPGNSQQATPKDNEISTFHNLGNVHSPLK
Experiment: competitive ELISA on coated soluble GPC3 core protein; labelled competitor biotin-M3C11;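 further: Biotin-labelled antibody added as 10 µL at 10 µg/mL for 1 h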
Readout Type: Inhibition of the binding of indicated biotin-Mab to sGPC3 core (%)
Write the numeric value and append its unit.

| Binder | Endpoint Result |
| --- | --- |
| M10D2 (antibody, V domains shown, Mouse monoclonal from hybridoma) VH: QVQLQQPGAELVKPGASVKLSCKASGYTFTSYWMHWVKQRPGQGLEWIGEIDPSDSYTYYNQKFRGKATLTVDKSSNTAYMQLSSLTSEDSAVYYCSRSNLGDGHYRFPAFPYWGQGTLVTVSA VL: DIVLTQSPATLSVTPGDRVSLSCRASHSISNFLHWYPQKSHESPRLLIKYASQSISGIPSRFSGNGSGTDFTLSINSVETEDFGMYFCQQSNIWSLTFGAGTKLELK | -7.7% |
| M11F1 (antibody, V domains shown, Mouse monoclonal from hybridoma) VH: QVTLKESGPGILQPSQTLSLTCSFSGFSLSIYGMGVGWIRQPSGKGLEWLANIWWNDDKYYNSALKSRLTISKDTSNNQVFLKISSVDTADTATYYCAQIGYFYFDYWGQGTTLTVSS VL: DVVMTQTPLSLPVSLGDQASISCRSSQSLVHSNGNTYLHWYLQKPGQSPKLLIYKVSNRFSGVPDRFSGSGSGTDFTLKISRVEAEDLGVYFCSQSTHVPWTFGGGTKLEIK | 2% |
| M1E7 (antibody, human IgG1, kappa, V domains shown, Mouse monoclonal from hybridoma; also called M1E07) VH: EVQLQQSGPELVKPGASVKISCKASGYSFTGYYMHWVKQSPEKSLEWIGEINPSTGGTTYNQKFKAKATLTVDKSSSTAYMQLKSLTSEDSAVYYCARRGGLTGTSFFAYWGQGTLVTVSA VL: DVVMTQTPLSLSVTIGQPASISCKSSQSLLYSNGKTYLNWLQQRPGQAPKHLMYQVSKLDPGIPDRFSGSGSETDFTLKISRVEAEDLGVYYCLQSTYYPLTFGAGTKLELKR | 26% |
| L9G11 (antibody, V domains shown, Mouse monoclonal from hybridoma) VH: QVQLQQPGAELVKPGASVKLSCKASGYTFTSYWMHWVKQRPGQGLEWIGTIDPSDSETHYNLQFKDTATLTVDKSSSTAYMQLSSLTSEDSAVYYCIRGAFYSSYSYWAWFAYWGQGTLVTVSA VL: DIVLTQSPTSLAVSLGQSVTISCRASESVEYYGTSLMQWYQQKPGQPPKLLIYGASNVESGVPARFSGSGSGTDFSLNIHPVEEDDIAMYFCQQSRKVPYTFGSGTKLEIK | 2.1% |
| M18D4 (antibody, human IgG1, kappa, V domains shown, Mouse monoclonal from hybridoma) VH: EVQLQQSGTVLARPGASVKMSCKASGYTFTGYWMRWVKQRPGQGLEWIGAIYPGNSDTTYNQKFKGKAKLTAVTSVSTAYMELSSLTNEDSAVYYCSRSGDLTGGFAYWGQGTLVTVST VL: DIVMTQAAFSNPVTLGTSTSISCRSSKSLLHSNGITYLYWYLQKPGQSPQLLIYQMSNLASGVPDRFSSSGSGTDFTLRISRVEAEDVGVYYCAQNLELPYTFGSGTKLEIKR | 0.2% |

# input for lookup
What value of Inhibition of the binding of indicated biotin-Mab to sGPC3 core (%) has been reported for the following binder? M5B9 (antibody, V domains shown, Mouse monoclonal from hybridoma) VH: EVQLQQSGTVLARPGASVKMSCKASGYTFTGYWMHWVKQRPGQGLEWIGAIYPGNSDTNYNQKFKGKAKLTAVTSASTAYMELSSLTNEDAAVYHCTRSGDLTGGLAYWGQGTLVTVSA VL: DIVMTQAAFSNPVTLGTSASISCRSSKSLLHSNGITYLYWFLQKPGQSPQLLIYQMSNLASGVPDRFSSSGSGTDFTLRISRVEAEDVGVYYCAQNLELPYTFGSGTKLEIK
0.1%

All values here come from patent US20100248359A1.
